Recorded EC50 values for a group of molecules are listed next.
Biological target: T1R1/T1R3 receptor (Felis catus, UniProt E3UMS2)
Assay: cell-based
Conditions: EC50 (mM), +Alanine (20 mM) + IMP (0.2 mM), in the presence of 20 mM alanine and 0.2 mM IMP
Please state the figure in mM; there is no need to write the unit.

Would you please look over these solved cases?
{"columns": ["molecule", "EC50 / mM"],
 "data": [
  ["Nc1nc2c(ncn2[C@@H]2O[C@H](COP(=O)(O)OP(=O)(O)O)[C@@H](O)[C@H]2O)c(=S)[nH]1 [6-Thioguanosine-5′-O-diphosphate]", 0.28],
  ["CC(C)CC(NC(=O)c1ccccc1)C(N)=O (racemic)", 0.91],
  ["Nc1ccccc1C(=O)NCCc1ccccc1 [2-amino-N-phenethylbenzamide]", 0.09]
]}

Task item: # input molecule: O=C(NCCc1ccccc1)c1cccnc1 [N-phenethylnicotinamide] ; wanted: its EC50
Reply: 0.22
